Reported pest or weed control at 500 µg/mL values follow for various molecules
Test system: two-spotted spider mites
protocol details: Insecticidal test on two-spotted spider mites (Test Example 1)
Format: in vivo
experimental context: Tetranychus urticae, 312 h; wettable powder diluted to 500 ppm active ingredient; soybean seedlings inoculated with adult mites immersed; survivors counted after 13 days; Equation 1; read-out: preventive value
Excerpt: Test Example 1 Insecticidal Test on Two-Spotted Spider Mites
quantity name: pest or weed control at 500 µg/mL (%)

molecule | target entity | quantity name | readout qualifier | result value
CSc1cc(-c2ccccc2)c(C#N)c(N)c1[N+](=O)[O-] [Comparative Compound 2, reference compound] | two-spotted spider mites | pest or weed control at 500 µg/mL | = | 0
N#Cc1ccc(-c2ccc(Cl)s2)cc1SCC1CC1 | two-spotted spider mites | pest or weed control at 500 µg/mL | ≥ | 90
CSc1cc(-c2ccccc2)c(C#N)c(N)c1C#N [Comparative Compound 1, reference compound] | two-spotted spider mites | pest or weed control at 500 µg/mL | = | 0
N#Cc1ccc(-c2n[nH]cc2C(F)(F)F)cc1SCC(F)(F)F | two-spotted spider mites | pest or weed control at 500 µg/mL | ≥ | 90
N#Cc1ccc(-c2ccc(C(F)(F)F)cn2)cc1SCC1CC1 | two-spotted spider mites | pest or weed control at 500 µg/mL | ≥ | 90

---

smiles string | melting point
N#Cc1ccc(-c2ccc(Cl)s2)cc1SCC1CC1 | 123 to 124 °C
N#Cc1ccc(-c2n[nH]cc2C(F)(F)F)cc1SCC(F)(F)F | 90 to 91 °C
N#Cc1ccc(-c2ccc(C(F)(F)F)cn2)cc1SCC1CC1 | 135 to 136 °C
CCCSc1cc(-c2ccc(C(F)(F)F)cc2)c(F)cc1[N+](=O)[O-] | 57 to 59 °C
CCSc1cc(-c2ccc(Cl)cc2Cl)ccc1C#N | 89 to 92 °C
C=CCSc1cc(-c2ccc(C(F)(F)F)cc2)ccc1C#N | 89 to 90 °C
